Measured melting point, listed per entry.

Consider the compound O=C1NC(=O)C(c2c[nH]c3ccccc23)=C1C(=O)c1cn2c3c(cccc13)CCC2 and give its measured melting point.
> 300 °C

* * *

Measured melting point, listed per entry.

Solved cases (5 shown):
# compound, melting point
data = [
    ("Cc1cc2c(NCc3ccc4c(c3)OCO4)nc(Cl)nc2s1", "162 °C"),
    ("COc1cc(Nc2nccc(-c3ccc(NCCCN4CCOCC4)nc3)n2)cc(OC)c1OC", "165 to 166 °C"),
    ("O=C1NCCCCC1Cc1ccccc1 (stereo not given)", "99 to 104 °C"),
    ("O=C(O)c1cccc(SCc2c(O[C@H](Cn3ccnc3)c3ccccc3)ccc3c2CCCC3=O)c1", "225 °C"),
    ("N#CC(C(=O)NC1CCCCC1)=C1Nc2ccccc2O1", "185 to 187 °C"),
]

Consider the compound CCC(CC)CNC(=O)c1ccc2cccc(Cc3ccc(C(=O)O)cc3OC)c2c1 and give its measured melting point.
198 to 199 °C

Consider the compound Fc1ccc(C(c2ccc(F)cc2)c2cc(Cl)cc(Cl)c2S)cc1 and give its measured melting point.
95 °C

Consider the compound CCCCCC1CN(C(=O)c2cc(OC)c(OC)c(OC)c2)CCN1C(=O)c1cc(OC)c(OC)c(OC)c1 (stereo not given) and give its measured melting point.
139 to 140 °C

Consider the compound COC(CCSCC=O)=NNS(=O)(=O)c1ccc(C)cc1 and give its measured melting point.
94 to 96 °C

Consider the compound COc1cc(OC)c2c(=O)[nH]c(-c3cccc(-c4ccc(C(=O)N(C)C)cc4)n3)nc2c1 and give its measured melting point.
217 to 219 °C

* * *

quantity.kind: melting point

# molecule, result
records = [
    ("Cc1ccc(S(=O)(=O)OCC2CC(=O)N(Cc3ccccc3)C2c2c(Cl)cccc2Cl)cc1 (centres undefined)", "110 to 114 °C"),
    ("O=C(Oc1ccc2c(OC(=O)c3ccc(O)c(Cl)c3)c3ccccc3cc2c1OC(=O)c1ccc(O)c(Cl)c1)c1ccc(O)c(Cl)c1", "238 °C"),
    ("COc1ccc(-n2nc(CBr)cc2-c2ccc(Cl)cc2)cc1", "88 to 90 °C"),
    ("CC(c1oc2ccccc2c(=O)c1-c1ccccc1)n1cnc2c(N)ncnc21 (centres undefined)", "254 to 257 °C"),
    ("COC(=O)CCCc1cc2nc(Cl)ccc2n1S(=O)(=O)c1ccccc1OC", "115 °C"),
]

Consider the molecule CC(C)CN1C(=O)COc2cc(F)c(N)cc21 and give its measured melting point.
176 to 178 °C

Consider the molecule OCCNCCOc1ccc(C2=C(c3ccccc3)CCCc3cc(O)ccc32)cc1 and give its measured melting point.
176 to 178 °C

Consider the molecule CCC(C)(C)c1ccc(OCC2CN=C(N)O2)cc1 (centres undefined) and give its measured melting point.
104 °C

Consider the molecule COc1cc(N)c2nccc(C)c2c1OCCCCc1ccccc1 and give its measured melting point.
59 to 59.5 °C

* * *

quantity.kind: melting point

# smiles.representation, melting point
records = [
    ("CCOC(=O)c1cn(Cc2ccccc2)nc1OCc1ccc(OCc2nc(-c3ccco3)oc2C)c(CC)c1", "125 to 126 °C"),
    ("COc1ccc(Cn2c(=O)c(NN)nc3ccc4ccccc4c32)c(OC)c1", "182 to 183 °C"),
    ("CC(C)Cc1c2c(nn1C)c(O)nc1ccccc12", "> 280 °C"),
    ("N#Cc1c(N2CCc3ccccc3CC2)nc(NCCCOc2ccccc2)[nH]c1=O", "175 to 180 °C"),
    ("CC(C)=CCN1C(=O)c2ccccc2C1=O", "95 to 97 °C"),
]

Consider the compound CCOP(=O)(OCC)C(CNc1nc(C)cc(Oc2ccc(Cl)cc2Cl)n1)P(=O)(OCC)OCC and give its measured melting point.
76 to 77 °C

Consider the compound CN(C)C=C(C#N)C(=O)c1ccsc1 and give its measured melting point.
118 to 119 °C

* * *

quantity.kind: melting point

Solved cases (4 shown):
# compound, melting point
records = [
    ("COc1cc(C(C)C)ccc1C1(NC(=O)C2CC2)C(=O)c2ccccc2C1=O", "145 to 147 °C"),
    ("Cc1nc2ccc(S(=O)(=O)n3c(CCCC(=O)O)cc4cc(C(F)(F)F)ccc43)cc2o1", "214 to 220 °C"),
    ("c1cc(OCCCNCC2COc3cc4c(cc3O2)OCO4)c2cccnc2c1 (centres undefined)", "140 to 145 °C"),
    ("N#Cc1nc(NCc2cnn(-c3c(Cl)cc(C(F)(F)F)cc3Cl)n2)[nH]c1C#N", "213 to 215 °C"),
]

Consider the compound O=C(NCCC[PH](=O)O)OCc1ccccc1 and give its measured melting point.
53 to 55 °C

Consider the compound COc1cc(C(C#Cc2c(C)nc(N)nc2N)OC)cc(OC)c1OC (centres undefined) and give its measured melting point.
127 to 129 °C

* * *

Measured melting point, listed per entry.

Solved cases (8 shown):
# compound, quantity.kind, result
records = [
    ("Cc1ccc2cc(NC(=O)c3cccc(SCc4cc(Nc5ccccc5)n[nH]4)c3)ccc2n1", "melting point", "172 to 174 °C"),
    ("O=C(O)c1cc(Cl)c(F)c(F)c1F", "melting point", "123 to 124 °C"),
    ("Cc1nc2c(c(N)c1C(=O)O)c1ccccc1n2C", "melting point", "230 to 232 °C"),
    ("COCn1ccnc1C(O)(c1ccc(F)cc1)c1ccc(Cl)cc1Cl (stereo unspecified)", "melting point", "179 °C"),
    ("CN1C(=O)[C@]2(C)CC[C@](NCC(=O)N3CCC[C@H]3C#N)(C1=O)C2(C)C", "melting point", "141 to 144 °C"),
    ("COC(=O)c1cc(S(C)(=O)=O)c(F)cc1Br", "melting point", "126 °C"),
    ("NCC1Cc2cc(-c3ccc(F)cc3)cc(F)c2O1 (stereo unspecified)", "melting point", "> 250 °C"),
    ("ClCc1nc(Cl)c2ccsc2n1", "melting point", "66 to 68 °C"),
]

Consider the compound COc1ccc(F)cc1C1OC(=O)CC1C(=O)O (stereo unspecified) and give its measured melting point.
41 to 43 °C

Consider the compound CCCCc1ccc2oc(=O)c(=O)oc2c1 and give its measured melting point.
88 to 93 °C

Consider the compound Cc1cccc(NC(=O)CCCCl)c1CNc1cccn2c(C)c(C)nc12 and give its measured melting point.
138 to 140 °C

* * *

quantity.kind: melting point

# compound, melting point
measured = [
    ("C#CCN(C)c1c(-c2c(F)cc(F)cc2F)c(OC)nc2ncnn12", "119 °C"),
    ("Cc1cccc(-c2cncc(OC3SCC(O)C(O)C3O)c2)n1 (stereo unspecified)", "188 °C"),
    ("CC(=O)c1ccsc1S(N)(=O)=O", "193 to 196 °C"),
    ("CC(COc1ccc(CC(=O)O)cc1Cl)NCC(O)c1cccc(Cl)c1 (stereo unspecified)", "188 to 192 °C"),
    ("COC1OCC[C@@H]1NC(=O)[C@H](CC(C)C)NC(=O)CNC(=O)C(C)(C)Oc1ccc2c(c1)Nc1ccccc1S2 (stereo partly specified)", "100 to 104 °C"),
]

Consider the compound CC(C)c1c(C(=O)N[C@H](C)[C@](O)(Cn2cncn2)c2ccc(F)cc2F)cnn1-c1ccc(Cl)cc1 and give its measured melting point.
85 to 92 °C

Consider the compound CN(CC(=O)C(Cc1ccccc1)NC(=O)c1ccccc1)C(=O)OC(Cc1ccccc1)C(=O)O (stereo unspecified) and give its measured melting point.
52 to 60 °C

Consider the compound CCOC(=O)c1c(C(C)C)nc2c(c1-c1ccc(F)cc1)CCCC2(C)C and give its measured melting point.
124 to 126 °C

Consider the compound C=Cc1c2c(c(C)c(C)c1N1CCN(c3ccc(OC)cc3)CC1)OC(C)(C)C2 and give its measured melting point.
135 to 136 °C

Consider the compound Cc1cc(CCC2CCC(COc3ccc(C4=NCCO4)cc3)CC2)on1 (stereo unspecified) and give its measured melting point.
48 to 50 °C

* * *

Measured melting point, listed per entry.

Solved cases (5 shown):
# compound, melting point
records = [
    ("CCCCCCCCCCCCc1ccc(S(=O)(=O)Nc2nnc(CC(=O)OCC)s2)cc1", "108 to 109 °C"),
    ("CC1(C)CON(Cc2ccc(NC(=O)C3=C(C(=O)O)CCCC3)cc2Br)C1=O", "149 to 151 °C"),
    ("COC(=O)c1cc(OCc2ccc3ccccc3n2)nn1C(C)C", "64 to 65 °C"),
    ("CC1CC(=O)NN=C1c1ccc(Cl)c([N+](=O)[O-])c1 (stereo not given)", "186 to 188 °C"),
    ("Cc1nnc2n1-c1ccccc1CS2", "142 to 144 °C"),
]

Consider the compound CCSCC12CCC(=O)C=C1CCC1C3CC(C)C(=O)C3(C)CCC12 (stereo not given) and give its measured melting point.
102 °C

Consider the compound COc1ncnc(OC)c1N(C(=O)CCl)C(C)n1cccn1 (stereo not given) and give its measured melting point.
124 to 126 °C

Consider the compound COc1ccc(NC(=O)C(F)F)cn1 and give its measured melting point.
75 to 78 °C

Consider the compound CCCCNC(=S)Nc1nc2ccc(OC(F)(F)F)cc2s1 and give its measured melting point.
211 °C

Consider the compound CCCCc1nc(Cl)c(CO)n1Cc1ccc(-c2ccccc2-c2nc(=O)o[nH]2)cc1 and give its measured melting point.
202 to 205 °C
